Every entry's value here was drawn from patent US6555533B2.

Hi there, I'd appreciate the recorded % T/C for every entry that follows.
# Tested on: HCT-116 tumor xenografts
# ASSAY_PROTOCOL: HCT-116 colon carcinoma xenograft model
# Type: in vivo, athymic (nu/nu) mice
# DETAILS: 100 μmol/kg i.v. 3×/week for 3 weeks
Marks after values point to notes of the source that are not given here.

CHEMICAL_STRUCTURE: CO[C@@H](C(=O)N[C@H]1CC[C@@H](OC(=O)C2CCCCC2)CNC1=O)[C@H](O)[C@@H](O)[C@H](O)/C=C/C(C)(C)C
% T/C: 10* %
--
CHEMICAL_STRUCTURE: CO[C@@H](C(=O)N[C@H]1CC[C@@H](OC(=O)CCc2cccnc2)CNC1=O)[C@H](O)[C@@H](O)[C@H](O)/C=C/C(C)(C)C
% T/C: 28* %
--
CHEMICAL_STRUCTURE: CO[C@@H](C(=O)N[C@H]1CC[C@@H](OC(=O)C2CCCC2)CNC1=O)[C@H](O)[C@@H](O)[C@H](O)/C=C/C(C)(C)C
% T/C: 25* %

# context switch: different molecule, same % T/C
Data request, read-out % T/C, for CO[C@@H](C(=O)N[C@H]1CC[C@@H](OC(=O)CCc2ccccc2)CNC1=O)[C@H](O)[C@@H](O)[C@H](O)/C=C/C(C)(C)C 11* %

----------
Hi there, I'd appreciate the recorded % T/C for every entry that follows.
# Test system: HCT-116 tumor xenografts
# ASSAY_PROTOCOL: HCT-116 colon carcinoma xenograft model
# Assay type: in vivo, athymic (nu/nu) mice
# DETAILS: 33 μmol/kg i.v. 3×/week for 3 weeks
Marks after values point to notes of the source that are not given here.

Example entries and their recorded answers appear below.
CHEMICAL_STRUCTURE: CO[C@@H](C(=O)N[C@H]1CC[C@@H](OC(=O)CCc2cccnc2)CNC1=O)[C@H](O)[C@@H](O)[C@H](O)/C=C/C(C)(C)C
% T/C: 67* %
--
CHEMICAL_STRUCTURE: CO[C@@H](C(=O)N[C@H]1CC[C@@H](OC(=O)C2CCCCC2)CNC1=O)[C@H](O)[C@@H](O)[C@H](O)/C=C/C(C)(C)C
% T/C: 35* %
--
CHEMICAL_STRUCTURE: CO[C@@H](C(=O)N[C@H]1CC[C@@H](OC(=O)CCc2ccccc2)CNC1=O)[C@H](O)[C@@H](O)[C@H](O)/C=C/C(C)(C)C
% T/C: 22* %

# context switch: different compound, same % T/C
Data request, read-out % T/C, for CO[C@@H](C(=O)N[C@H]1CC[C@@H](OC(=O)C2CCCC2)CNC1=O)[C@H](O)[C@@H](O)[C@H](O)/C=C/C(C)(C)C 56* %

----------
Hi there, I'd appreciate the recorded Dead/Total for every entry that follows.
# Tested on: A549 tumor xenografts
# DETAILS: 100 μmol/kg i.v. 3×/week for 3 weeks

Example entries and their recorded answers appear below.
CHEMICAL_STRUCTURE: CO[C@@H](C(=O)N[C@H]1CC[C@@H](OC(=O)C2CCCCC2)CNC1=O)[C@H](O)[C@@H](O)[C@H](O)/C=C/C(C)(C)C
REPORTED_VALUE: 1/8
//
CHEMICAL_STRUCTURE: CO[C@@H](C(=O)N[C@H]1CC[C@@H](OC(=O)CCc2cccnc2)CNC1=O)[C@H](O)[C@@H](O)[C@H](O)/C=C/C(C)(C)C
REPORTED_VALUE: 0/8
//
CHEMICAL_STRUCTURE: CO[C@@H](C(=O)N[C@H]1CC[C@@H](OC(=O)CCc2ccccc2)CNC1=O)[C@H](O)[C@@H](O)[C@H](O)/C=C/C(C)(C)C
REPORTED_VALUE: 1/8

Data request, read-out Dead/Total, for CO[C@@H](C(=O)N[C@H]1CC[C@@H](OC(=O)C2CCCC2)CNC1=O)[C@H](O)[C@@H](O)[C@H](O)/C=C/C(C)(C)C 0/7

----------
# Test system: PC-3 prostate carcinoma
# ASSAY_PROTOCOL: Anchorage Dependent Growth Monolayer Assay (ADGMA), PC-3
# Assay type: cell-based, human
# DETAILS: 3-day exposure, MTS readout; read-out: IC50 (average±S.D.) PC-3
PARAMETER: IC50 (nM)
One number for each entry, in nM.

Data request, read-out IC50, for CO[C@@H](C(=O)N[C@H]1CC[C@@H](OC(=O)C2CCCC2)CNC1=O)[C@H](O)[C@@H](O)[C@H](O)/C=C/C(C)(C)C [Ex. 2] 145

----------
Hi there, I'd appreciate the recorded % T/C for every entry that follows.
# System: MDA-MB-435 tumor xenografts
# ASSAY_PROTOCOL: MDA-MB-435 breast carcinoma xenograft model
# Format: in vivo, athymic (nu/nu) mice
# DETAILS: 33 μmol/kg i.v. 3×/week for 3 weeks
# Description: Positive controls are carried out with doxorubicin administered 3 times per week i.v. The following results were obtained for compounds of Ex.1-Ex.12 tested against MDA-MB-435 tumor xenografts 3×/week for 3 weeks: […]
Marks after values point to notes of the source that are not given here.

Example entries and their recorded answers appear below.
CHEMICAL_STRUCTURE: CO[C@@H](C(=O)N[C@H]1CC[C@@H](OC(=O)C2CCCCCC2)CNC1=O)[C@H](O)[C@@H](O)[C@H](O)/C=C/C(C)(C)C
% T/C: 28* %
//
CHEMICAL_STRUCTURE: CCCCCCCCCCOc1ccc(C(=O)O[C@@H]2CC[C@H](NC(=O)[C@H](OC)[C@H](O)[C@@H](O)[C@H](O)/C=C/C(C)(C)C)C(=O)NC2)cc1
% T/C: 2* %
//
CHEMICAL_STRUCTURE: CCCCCCCCCCc1ccc(C(=O)O[C@@H]2CC[C@H](NC(=O)[C@H](OC)[C@H](O)[C@@H](O)[C@H](O)/C=C/C(C)(C)C)C(=O)NC2)cc1
% T/C: 7* %

Hey, can you go through the list below and give me % T/C for every item?
1. CO[C@@H](C(=O)N[C@H]1CC[C@@H](OC(=O)CCc2cccnc2)CNC1=O)[C@H](O)[C@@H](O)[C@H](O)/C=C/C(C)(C)C
2. CO[C@@H](C(=O)N[C@H]1CC[C@@H](OC(=O)C2CCCC2)CNC1=O)[C@H](O)[C@@H](O)[C@H](O)/C=C/C(C)(C)C
3. CO[C@@H](C(=O)N[C@H]1CC[C@@H](OC(=O)CC2CCCCC2)CNC1=O)[C@H](O)[C@@H](O)[C@H](O)/C=C/C(C)(C)C
4. CO[C@@H](C(=O)N[C@H]1CC[C@@H](OC(=O)Cc2ccccc2)CNC1=O)[C@H](O)[C@@H](O)[C@H](O)/C=C/C(C)(C)C
5. CO[C@@H](C(=O)N[C@H]1CC[C@@H](OC(=O)CCc2ccccc2)CNC1=O)[C@H](O)[C@@H](O)[C@H](O)/C=C/C(C)(C)C
6. CO[C@@H](C(=O)N[C@H]1CC[C@@H](OC(=O)Cc2ccc(Cl)c(Cl)c2)CNC1=O)[C@H](O)[C@@H](O)[C@H](O)/C=C/C(C)(C)C

1: 44* %; 2: 13* %; 3: 34* %; 4: 43* %; 5: 12* %; 6: 67%

Hey, can you go through the list below and give me % T/C for every item?
1. COc1ccc(CC(=O)O[C@@H]2CC[C@H](NC(=O)[C@H](OC)[C@H](O)[C@@H](O)[C@H](O)/C=C/C(C)(C)C)C(=O)NC2)cc1
2. CO[C@@H](C(=O)N[C@H]1CC[C@@H](OC(=O)C2CCCCC2)CNC1=O)[C@H](O)[C@@H](O)[C@H](O)/C=C/C(C)(C)C

1. 48* %
2. 24* %

----------
# Test system: A549 non-small cell lung carcinoma
# ASSAY_PROTOCOL: Anchorage Dependent Growth Monolayer Assay (ADGMA), A549
# Type: cell-based, human
# DETAILS: Homo sapiens, A549, 72 h; 3-day exposure, MTS readout; read-out: IC50 (average±S.D.) A549
PARAMETER: pIC50
Give bare numbers, as −log10 of the molar value.

Example entries and their recorded answers appear below.
COMPOUND: CO[C@@H](C(=O)N[C@H]1CC[C@@H](OC(=O)CCc2cccnc2)CNC1=O)[C@H](O)[C@@H](O)[C@H](O)/C=C/C(C)(C)C
REPORTED_VALUE: 5.98
//
COMPOUND: CO[C@@H](C(=O)N[C@H]1CC[C@@H](OC(=O)CCc2ccccc2)CNC1=O)[C@H](O)[C@@H](O)[C@H](O)/C=C/C(C)(C)C
REPORTED_VALUE: 7.70
//
COMPOUND: CO[C@@H](C(=O)N[C@H]1CC[C@@H](OC(=O)C2CCCCC2)CNC1=O)[C@H](O)[C@@H](O)[C@H](O)/C=C/C(C)(C)C
REPORTED_VALUE: 7.11

Data request, read-out pIC50, for COc1cccc2c1C(=O)c1c(O)c3c(c(O)c1C2=O)C[C@@](O)(C(=O)CO)C[C@@H]3O[C@H]1C[C@H](N)[C@H](O)[C@H](C)O1 [doxorubicin, reference compound] 6.30
